TEST DETAILS: Drug concentration in rat plasma at 3 mg/kg, po after 1 hrs by LC-MS/MS analysis
Type: ADME, organism-based
ENDPOINT NAME: concentration at 1 h (ng/mL)
Return type: number; implicit unit ng/mL.

Q: Which measured concentration at 1 h value corresponds to Cc1cn([C@H](C)CC#N)c(=O)c2cc(Cn3nc(C(F)F)cc3Cl)nn12 ?
Result: 397

###

TEST DETAILS: Ratio of drug concentration in brain to plasma at 3 mg/kg, po after 0.5 hr by LC-MS/MS analysis
Format: ADME, organism-based
MEASUREMENT SETUP: rat, brain and plasma, read-out: BPR
ENDPOINT NAME: Kp at 0.5 h
// no unit, no text: just the number

Q: Which measured Kp at 0.5 h value corresponds to Cc1cn([C@H](C)CC#N)c(=O)c2cc(Cn3nc(C(F)F)cc3Cl)nn12 ?
Result: 0.59

###

TEST DETAILS: 1-Octanol/aqueous buffer distribution coefficient, log D of the compound at pH 7.4 by HPLC analysis
Type: physicochemical
ENDPOINT NAME: logD
// no unit, no text: just the number

>  <SMILES>
Cc1cn(CCC#N)c(=O)c2cc(Cn3nc(C(F)F)cc3Cl)nn12

>  <ASSAY VALUE>
1.88

$$$$
>  <SMILES>
CCc1cn(CCC#N)c(=O)c2sc(CN(CC)c3ccc(F)cc3)cc12

>  <ASSAY VALUE>
3.34

$$$$
>  <SMILES>
Cc1cn([C@@H](C)CC#N)c(=O)c2cc(Cn3nc(C(F)F)cc3Cl)nn12

>  <ASSAY VALUE>
2.06

$$$$
>  <SMILES>
CCN(Cc1cc2c(=O)n(CCC#N)cc(C)n2n1)c1ccc(F)cc1

>  <ASSAY VALUE>
2.83

$$$$
>  <SMILES>
CCN(Cc1cc2c(=O)n(CCC#N)ccc2s1)c1ccc(F)cc1

>  <ASSAY VALUE>
2.92

$$$$

Q: Which measured logD value corresponds to Cc1cc(Cl)n(Cc2cc3c(=O)n(CCC#N)cc(C)n3n2)n1 ?
Result: 1.84

Q: Which measured logD value corresponds to CCN(Cc1cc2c(=O)n(CCC#N)ccn2n1)c1ccc(F)cc1 ?
Result: 2.45

###

SYSTEM UNDER TEST: Glutamate receptor ionotropic, NMDA 2A (Homo sapiens, UniProt Q05586+Q12879)
Sequence (Q12879 whole entry, one chain of several): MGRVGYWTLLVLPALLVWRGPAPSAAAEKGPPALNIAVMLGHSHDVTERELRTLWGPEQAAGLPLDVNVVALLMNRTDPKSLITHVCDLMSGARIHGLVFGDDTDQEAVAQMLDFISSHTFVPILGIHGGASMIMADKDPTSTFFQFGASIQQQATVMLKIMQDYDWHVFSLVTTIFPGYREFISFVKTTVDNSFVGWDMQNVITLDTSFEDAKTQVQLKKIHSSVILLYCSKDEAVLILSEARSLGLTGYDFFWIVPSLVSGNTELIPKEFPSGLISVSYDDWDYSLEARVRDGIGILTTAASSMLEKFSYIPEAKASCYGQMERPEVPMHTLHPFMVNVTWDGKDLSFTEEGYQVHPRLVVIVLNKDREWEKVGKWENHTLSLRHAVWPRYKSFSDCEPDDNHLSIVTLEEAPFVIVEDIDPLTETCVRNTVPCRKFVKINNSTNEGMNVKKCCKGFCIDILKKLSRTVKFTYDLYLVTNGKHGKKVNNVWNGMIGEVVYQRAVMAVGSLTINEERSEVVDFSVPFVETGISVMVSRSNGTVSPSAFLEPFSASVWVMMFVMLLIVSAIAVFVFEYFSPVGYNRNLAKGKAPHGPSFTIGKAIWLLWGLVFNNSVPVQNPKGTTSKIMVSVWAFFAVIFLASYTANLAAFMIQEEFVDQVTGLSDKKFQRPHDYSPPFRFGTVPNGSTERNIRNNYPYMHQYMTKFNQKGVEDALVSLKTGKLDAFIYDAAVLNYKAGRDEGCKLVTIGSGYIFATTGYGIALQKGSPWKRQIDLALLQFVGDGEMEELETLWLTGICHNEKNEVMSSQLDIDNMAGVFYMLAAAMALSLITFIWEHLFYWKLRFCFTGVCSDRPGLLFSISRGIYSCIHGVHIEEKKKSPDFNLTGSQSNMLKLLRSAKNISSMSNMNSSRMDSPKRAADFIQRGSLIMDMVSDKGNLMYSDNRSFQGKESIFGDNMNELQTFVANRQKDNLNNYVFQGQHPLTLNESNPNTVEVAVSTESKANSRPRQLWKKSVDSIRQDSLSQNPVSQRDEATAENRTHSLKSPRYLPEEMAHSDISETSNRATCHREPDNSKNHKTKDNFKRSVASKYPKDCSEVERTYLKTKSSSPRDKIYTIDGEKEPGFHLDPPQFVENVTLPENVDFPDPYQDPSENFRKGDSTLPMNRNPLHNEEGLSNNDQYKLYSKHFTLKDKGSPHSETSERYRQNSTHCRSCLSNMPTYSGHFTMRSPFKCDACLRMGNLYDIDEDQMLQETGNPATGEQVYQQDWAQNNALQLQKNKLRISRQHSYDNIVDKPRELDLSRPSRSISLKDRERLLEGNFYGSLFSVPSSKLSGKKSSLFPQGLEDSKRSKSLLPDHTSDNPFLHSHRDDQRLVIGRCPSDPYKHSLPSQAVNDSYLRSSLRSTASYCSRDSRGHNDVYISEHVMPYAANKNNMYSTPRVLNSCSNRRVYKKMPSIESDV
TEST DETAILS: Positive allosteric modulator activity at GluN2A receptor (unknown origin) by FLIPR assay
ENDPOINT NAME: EC50 (nM)
Return type: number; implicit unit nM.

>  <SMILES>
N#C[C@H]1C[C@H]1c1c(Cl)ccc2nc(Cn3nc(C(F)(F)F)cc3Cl)cc(=O)n12

>  <ENDPOINT NAME>
EC50

>  <READOUT UNIT>
nM

>  <ASSAY VALUE>
39

$$$$

Now let's try a different one.
Q: Which measured EC50 value corresponds to N#C[C@H]1C[C@H]1c1c(C(F)(F)F)sc2nc(Cn3nc(C(F)(F)F)cc3Cl)cc(=O)n12 ?
Result: 11

###

TEST DETAILS: Oral bioavailability in rat at 10 mg/kg by LC-MS/MS analysis
Assay type: ADME, organism-based
MEASUREMENT SETUP: in vivo
ENDPOINT NAME: bioavailability (%)
Return type: number; implicit unit %.

Q: Which measured bioavailability value corresponds to Cc1cn([C@H](C)CC#N)c(=O)c2cc(Cn3nc(C(F)F)cc3Cl)nn12 ?
Result: 21.4

###

TEST DETAILS: Drug concentration in rat brain at 3 mg/kg, po after 0.5 hrs by LC-MS/MS analysis
Format: ADME, organism-based
MEASUREMENT SETUP: read-out: Ct
ENDPOINT NAME: concentration at 0.5 h (ng/g)
Return type: number; implicit unit ng/g.

Q: Which measured concentration at 0.5 h value corresponds to Cc1cn([C@H](C)CC#N)c(=O)c2cc(Cn3nc(C(F)F)cc3Cl)nn12 ?
Result: 307

###

SYSTEM UNDER TEST: Ionotropic glutamate receptor NMDA 1/2C (Homo sapiens, UniProt Q05586+Q14957)
Sequence (Q14957 whole entry, other chains not shown): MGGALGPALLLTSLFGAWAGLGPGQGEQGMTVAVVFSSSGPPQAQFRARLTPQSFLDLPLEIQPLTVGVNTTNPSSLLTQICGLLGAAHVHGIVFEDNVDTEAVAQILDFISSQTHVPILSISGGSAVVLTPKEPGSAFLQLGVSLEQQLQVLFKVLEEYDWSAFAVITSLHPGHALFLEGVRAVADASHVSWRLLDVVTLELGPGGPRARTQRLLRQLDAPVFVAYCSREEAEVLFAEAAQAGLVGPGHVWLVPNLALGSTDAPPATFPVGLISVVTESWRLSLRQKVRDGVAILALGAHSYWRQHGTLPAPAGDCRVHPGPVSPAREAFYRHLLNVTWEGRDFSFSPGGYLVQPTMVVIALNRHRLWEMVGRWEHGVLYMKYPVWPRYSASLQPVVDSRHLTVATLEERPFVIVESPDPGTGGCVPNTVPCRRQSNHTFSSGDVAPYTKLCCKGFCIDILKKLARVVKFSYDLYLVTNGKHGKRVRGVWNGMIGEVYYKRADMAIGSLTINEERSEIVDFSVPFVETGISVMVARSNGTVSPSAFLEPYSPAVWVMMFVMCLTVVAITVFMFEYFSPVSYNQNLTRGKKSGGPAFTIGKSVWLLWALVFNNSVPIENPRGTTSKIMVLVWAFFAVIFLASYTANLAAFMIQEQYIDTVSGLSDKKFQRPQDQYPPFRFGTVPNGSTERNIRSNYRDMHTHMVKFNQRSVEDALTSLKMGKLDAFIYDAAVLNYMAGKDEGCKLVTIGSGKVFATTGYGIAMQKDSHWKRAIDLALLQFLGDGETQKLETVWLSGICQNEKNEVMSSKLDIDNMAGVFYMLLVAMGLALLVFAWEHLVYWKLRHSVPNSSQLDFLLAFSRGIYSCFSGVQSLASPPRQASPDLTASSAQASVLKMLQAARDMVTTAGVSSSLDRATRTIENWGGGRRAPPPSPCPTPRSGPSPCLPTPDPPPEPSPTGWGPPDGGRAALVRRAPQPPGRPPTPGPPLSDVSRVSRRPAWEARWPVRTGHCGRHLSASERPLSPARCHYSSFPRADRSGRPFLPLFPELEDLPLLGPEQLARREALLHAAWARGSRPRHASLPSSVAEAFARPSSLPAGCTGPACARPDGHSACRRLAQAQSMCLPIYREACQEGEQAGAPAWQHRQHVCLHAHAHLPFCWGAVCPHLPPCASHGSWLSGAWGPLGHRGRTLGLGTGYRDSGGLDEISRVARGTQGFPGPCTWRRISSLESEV
TEST DETAILS: Positive allosteric modulator activity at GluN1a/GluN2C (unknown origin) expressed in CHO cells in presence of glutamate by Ca2+ influx assay
ENDPOINT NAME: EC50

Q: Which measured EC50 value corresponds to Cc1cn([C@H](C)CC#N)c(=O)c2cc(Cn3nc(C(F)F)cc3Cl)nn12 ?
Result: > 30 µM

###

TEST DETAILS: Ratio of drug concentration in brain to plasma at 3 mg/kg, po after 2 hr by LC-MS/MS analysis
Type: ADME, organism-based
MEASUREMENT SETUP: rat, brain and plasma, read-out: BPR
ENDPOINT NAME: Kp at 2 h
// no unit, no text: just the number

Q: Which measured Kp at 2 h value corresponds to Cc1cn([C@H](C)CC#N)c(=O)c2cc(Cn3nc(C(F)F)cc3Cl)nn12 ?
Result: 0.51

###

TEST DETAILS: MRT in rat at 10 mg/kg, po by LC-MS/MS analysis
Assay type: ADME, organism-based
MEASUREMENT SETUP: in vivo
ENDPOINT NAME: MRT

Q: Which measured MRT value corresponds to Cc1cn([C@H](C)CC#N)c(=O)c2cc(Cn3nc(C(F)F)cc3Cl)nn12 ?
Result: 3.5 h

###

TEST DETAILS: Ratio of drug concentration in brain to plasma at 3 mg/kg, po after 1 hr by LC-MS/MS analysis
Format: ADME, organism-based
MEASUREMENT SETUP: rat, brain and plasma, read-out: BPR
ENDPOINT NAME: Kp at 1 h

Q: Which measured Kp at 1 h value corresponds to Cc1cn([C@H](C)CC#N)c(=O)c2cc(Cn3nc(C(F)F)cc3Cl)nn12 ?
Result: 0.47

###

# pEC50 per record follows
SYSTEM UNDER TEST: Glutamate NMDA receptor; GRIN1/GRIN2A (Homo sapiens, UniProt Q05586+Q12879)
Sequence (Q12879 whole entry, other chains not shown): as the sequence (Q12879 whole entry, one chain of several) above
TEST DETAILS: Positive allosteric modulator activity at GluN1a/GluN2A (unknown origin) expressed in CHO cells in presence of glutamate by Ca2+ influx assay
Lab note: report pEC50 as minus log10 of the concentration in molar units, number only.

>  <SMILES>
Cc1cn([C@H](C)CC#N)c(=O)c2cc(Cn3nc(C(F)F)cc3Cl)nn12

>  <ENDPOINT NAME>
pEC50

>  <ASSAY VALUE>
6.29

$$$$

Q: Which measured pEC50 value corresponds to CCN(Cc1cc2c(C)cn(CCC#N)c(=O)c2s1)c1ccc(F)cc1 ?
Result: 6.74

Q: Which measured pEC50 value corresponds to CCN(Cc1cc2ccn(CCC#N)c(=O)c2s1)c1ccc(F)cc1 ?
Result: 5.64

Q: Which measured pEC50 value corresponds to CCc1cn(CCC#N)c(=O)c2sc(CN(CC)c3ccc(F)cc3)cc12 ?
Result: 5.36

###

# microsomal CLint at 1 µM per record follows
TEST DETAILS: Clearance in human liver microsomes at 1 uM in presence of NADPH measured for 15 to 30 min by LC-MS/MS analysis
Assay type: ADME, Microsome
MEASUREMENT SETUP: time 15-30 min, read-out: CLH
Return type: number; implicit unit µL/min/mg.

Field: example entries. Status: answers known.
>  <SMILES>
Cc1cn([C@H](C)CC#N)c(=O)c2cc(Cn3nc(C(F)F)cc3Cl)nn12

>  <ENDPOINT NAME>
microsomal CLint at 1 µM

>  <READOUT UNIT>
µL/min/mg

>  <ASSAY VALUE>
33

$$$$
>  <SMILES>
CCN(Cc1cc2c(=O)n(CCC#N)cc(C)n2n1)c1ccc(F)cc1

>  <ENDPOINT NAME>
microsomal CLint at 1 µM

>  <READOUT UNIT>
µL/min/mg

>  <ASSAY VALUE>
37

$$$$

Now let's try a different one.
Q: Which measured microsomal CLint at 1 µM value corresponds to Cc1cc(Cl)n(Cc2cc3c(=O)n(CCC#N)cc(C)n3n2)n1 ?
Result: 8

###

# log10(microsomal CLint at 1 µM) per record follows
TEST DETAILS: Clearance in rat liver microsomes at 1 uM in presence of NADPH measured for 15 to 30 min by LC-MS/MS analysis
Assay type: ADME, Microsome
MEASUREMENT SETUP: time 15-30 min, read-out: CLH
Short version: log10 scale, microsomal CLint at 1 µM, µL/min/mg.

>  <SMILES>
Cc1cn(CCC#N)c(=O)c2cc(Cn3nc(Cl)cc3Cl)nn12

>  <ASSAY VALUE>
1.11

$$$$

Q: Which measured log10(microsomal CLint at 1 µM) value corresponds to CCN(Cc1cc2c(=O)n(CCC#N)cc(C)n2n1)c1ccc(F)cc1 ?
Result: 1.96

Q: Which measured log10(microsomal CLint at 1 µM) value corresponds to Cc1cn(CCC#N)c(=O)c2cc(Cn3nc(Br)cc3Cl)nn12 ?
Result: 0.00

Q: Which measured log10(microsomal CLint at 1 µM) value corresponds to Cc1cc(Cl)n(Cc2cc3c(=O)n(CCC#N)cc(C)n3n2)n1 ?
Result: 1.00

Q: Which measured log10(microsomal CLint at 1 µM) value corresponds to Cc1cn(CCC#N)c(=O)c2cc(Cn3nc(C(F)(F)F)cc3Cl)nn12 ?
Result: 0.85
